# PROCEDURE TEXT: Cmax in CD-1 mouse at 0.5 mg/kg, po
# Assay type: ADME, organism-based
# Set-up: route oral, dose 0.5 mg/kg
# DETAILS: in vivo
ENDPOINT NAME: Cmax (ng/mL)

| SMILES STR | MEASUREMENT |
| --- | --- |
| Cn1cc(-c2ccc(F)c(C(F)(F)F)c2)nc1C1CCN(c2ncnc(N)c2-c2ccc(F)cc2)CC1 | 72.1 |

* * *

Documented IC50 across a set of compounds
# MEASURED ON: Serine/threonine-protein kinase AKT (Homo sapiens, UniProt P31751+Q9Y243+P31749)
# PROCEDURE TEXT: Inhibition of Akt (unknown origin)
# Type: protein assay
ENDPOINT NAME: IC50 (nM)

| COMPOUND | ENDPOINT NAME | MEASUREMENT UNIT | MODIFIER SIGN | MEASUREMENT |
| --- | --- | --- | --- | --- |
| NC(=O)c1c(N)ncnc1N1CCC(c2nc(-c3ccc(F)c(C(F)(F)F)c3)cn2CCN2CCC2)CC1 | IC50 | nM | = | 16 |
| NCC(c1ccc(F)cc1)N1CCN(c2ncnc(N)c2-c2ccc(F)cc2)CC1 (stereo not drawn) | IC50 | nM | > | 1000 |
| Cn1cc(-c2ccc(F)c(C(F)(F)F)c2)nc1C1CCN(c2ncnc(N)c2-c2ccccc2F)CC1 | IC50 | nM | > | 1000 |
| Cn1cc(-c2ccc(F)c(C(F)(F)F)c2)nc1C1CCN(c2ncnc(N)c2-c2ccc(F)cc2)CC1 | IC50 | nM | = | 2200 |
| Nc1ncnc(N2CCC(c3nc(-c4ccc(F)c(C(F)(F)F)c4)cn3CCN3CCC3)CC2)c1Cl | IC50 | nM | = | 1 |
| Nc1ncnc(N2CCC(c3nc(-c4ccc(F)c(C(F)(F)F)c4)cn3CCN3CCCCC3)CC2)c1-c1ccc(F)cc1 | IC50 | nM | = | 350 |
| Cn1cc(-c2ccc(F)c(C(F)(F)F)c2)nc1C1CCN(c2ncnc(N)c2-c2cccc(F)c2)CC1 | IC50 | nM | > | 1000 |
| Cn1cc(-c2ccc(F)c(C(F)(F)F)c2)nc1C1CCN(c2ncnc(N)c2-c2cncnc2)CC1 | IC50 | nM | = | 880 |
| CCc1c(N)ncnc1N1CCC(c2nc(-c3ccc(F)c(C(F)(F)F)c3)cn2CCN(C)C)CC1 | IC50 | nM | = | 12 |
| C=Cc1c(N)ncnc1N1CCC(c2nc(-c3ccc(F)c(C(F)(F)F)c3)cn2CCN2CCC2)CC1 | IC50 | nM | = | 4.2 |
| COc1c(N)ncnc1N1CCC(c2nc(-c3ccc(F)c(C(F)(F)F)c3)cn2C)CC1 | IC50 | nM | = | 518 |
| Nc1ncnc(N2CCN(C(CN3CCC3)c3ccc(C(F)(F)F)cc3)CC2)c1-c1ccc(F)cc1 (stereo not drawn) | IC50 | nM | > | 1000 |
| Cn1cc(-c2ccc(F)c(C(F)(F)F)c2)nc1C1CCN(c2ncnc(N)c2C#N)CC1 | IC50 | nM | = | 260 |
| CN(C)CCn1cc(-c2ccc(F)c(C(F)(F)F)c2)nc1C1CCN(c2ncnc(N)c2C2CC2)CC1 | IC50 | nM | = | 4.8 |
| Nc1ncnc(N2CCC(c3nc(-c4ccc(F)c(C(F)(F)F)c4)cn3CCN3CCC3)CC2)c1C1CCC1 | IC50 | nM | = | 7.3 |
| C=Cc1c(N)ncnc1N1CCC(c2nc(-c3ccc(F)c(C(F)(F)F)c3)cn2CCN(C)C)CC1 | IC50 | nM | = | 9.1 |
| Cn1cc(-c2ccc(F)c(C(F)(F)F)c2)nc1C1CCN(c2cc(N)ncn2)CC1 | IC50 | nM | > | 1000 |
| CC(C)c1c(N)ncnc1N1CCC(c2nc(-c3ccc(F)c(C(F)(F)F)c3)cn2CCN2CCC2)CC1 | IC50 | nM | = | 6.6 |

* * *

# MEASURED ON: Voltage-gated inwardly rectifying potassium channel KCNH2 (Homo sapiens)
# Sequence (Q12809 whole entry): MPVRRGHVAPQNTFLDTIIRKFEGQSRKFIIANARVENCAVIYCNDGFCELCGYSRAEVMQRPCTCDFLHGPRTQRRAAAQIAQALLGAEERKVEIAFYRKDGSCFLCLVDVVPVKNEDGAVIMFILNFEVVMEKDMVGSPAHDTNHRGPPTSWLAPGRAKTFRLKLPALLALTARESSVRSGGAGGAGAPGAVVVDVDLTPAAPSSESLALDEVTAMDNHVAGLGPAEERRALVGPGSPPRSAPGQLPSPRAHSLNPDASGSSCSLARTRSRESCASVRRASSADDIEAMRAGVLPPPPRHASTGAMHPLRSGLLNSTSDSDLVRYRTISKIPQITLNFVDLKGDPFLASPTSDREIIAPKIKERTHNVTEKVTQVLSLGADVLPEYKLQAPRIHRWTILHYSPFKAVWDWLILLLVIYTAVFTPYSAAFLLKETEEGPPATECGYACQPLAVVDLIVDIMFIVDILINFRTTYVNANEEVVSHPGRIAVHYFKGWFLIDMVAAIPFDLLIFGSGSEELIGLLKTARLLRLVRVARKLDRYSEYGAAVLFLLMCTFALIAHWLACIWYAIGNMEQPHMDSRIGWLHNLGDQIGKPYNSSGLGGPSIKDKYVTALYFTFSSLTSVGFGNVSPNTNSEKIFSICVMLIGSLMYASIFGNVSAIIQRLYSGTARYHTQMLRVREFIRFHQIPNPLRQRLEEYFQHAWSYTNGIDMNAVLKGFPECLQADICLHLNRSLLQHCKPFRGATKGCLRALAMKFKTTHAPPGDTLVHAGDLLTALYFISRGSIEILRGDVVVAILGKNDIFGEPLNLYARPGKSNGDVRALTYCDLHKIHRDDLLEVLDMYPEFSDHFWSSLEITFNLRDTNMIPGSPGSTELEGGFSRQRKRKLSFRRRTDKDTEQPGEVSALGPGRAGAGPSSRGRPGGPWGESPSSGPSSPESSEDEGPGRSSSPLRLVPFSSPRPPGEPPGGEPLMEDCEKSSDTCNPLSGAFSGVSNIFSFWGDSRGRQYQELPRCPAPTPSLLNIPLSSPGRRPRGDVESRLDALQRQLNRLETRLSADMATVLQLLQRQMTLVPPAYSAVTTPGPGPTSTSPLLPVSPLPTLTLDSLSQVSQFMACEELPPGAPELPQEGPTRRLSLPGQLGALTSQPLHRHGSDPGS
# PROCEDURE TEXT: Inhibition of human ERG by patch clamp assay
pIC50: −log10 of the molar value.
compounds and their reported pIC50
ENDPOINT NAME: pIC50

| SMILES STR | MEASURED ON | ENDPOINT NAME | MEASUREMENT |
| --- | --- | --- | --- |
| C=Cc1c(N)ncnc1N1CCC(c2nc(-c3ccc(F)c(C(F)(F)F)c3)cn2CCN2CCC2)CC1 | Voltage-gated inwardly rectifying potassium channel KCNH2 (Homo sapiens) | pIC50 | 6.03 |
| Nc1ncnc(N2CCC(c3nc(-c4ccc(F)c(C(F)(F)F)c4)cn3CCN3CCC3)CC2)c1C1CCC1 | Voltage-gated inwardly rectifying potassium channel KCNH2 (Homo sapiens) | pIC50 | 5.89 |
| Cn1cc(-c2ccc(F)c(C(F)(F)F)c2)nc1C1CCN(c2ncnc(N)c2-c2ccc(F)cc2)CC1 | Voltage-gated inwardly rectifying potassium channel KCNH2 (Homo sapiens) | pIC50 | 5.74 |
| NC(=O)c1c(N)ncnc1N1CCC(c2nc(-c3ccc(F)c(C(F)(F)F)c3)cn2CCN2CCC2)CC1 | Voltage-gated inwardly rectifying potassium channel KCNH2 (Homo sapiens) | pIC50 | 4.76 |
| CCc1c(N)ncnc1N1CCC(c2nc(-c3ccc(F)c(C(F)(F)F)c3)cn2CCN2CCC2)CC1 | Voltage-gated inwardly rectifying potassium channel KCNH2 (Homo sapiens) | pIC50 | 5.80 |
| Nc1ncnc(N2CCC(c3nc(-c4ccc(F)c(C(F)(F)F)c4)cn3CCN3CCCC3)CC2)c1-c1ccc(F)cc1 | Voltage-gated inwardly rectifying potassium channel KCNH2 (Homo sapiens) | pIC50 | 5.82 |
| CN(C)CCn1cc(-c2ccc(F)c(C(F)(F)F)c2)nc1C1CCN(c2ncnc(N)c2C(N)=O)CC1 | Voltage-gated inwardly rectifying potassium channel KCNH2 (Homo sapiens) | pIC50 | 5.40 |

* * *

# MEASURED ON: Serine/threonine-protein kinase AKT (Homo sapiens, UniProt P31751+Q9Y243+P31749)
# PROCEDURE TEXT: Inhibition of Akt (unknown origin)
# Type: protein assay
The threshold is 400 nM. Values of IC50 beneath it are tagged true (1); values meeting or exceeding it are tagged false (0).

| MOLECULE | LABEL CLASS |
| --- | --- |
| Cn1cc(-c2ccc(F)c(C(F)(F)F)c2)nc1C1CCN(c2ncnc(N)c2-c2ccncc2)CC1 | false (0) |
| Cn1cc(-c2ccc(F)c(C(F)(F)F)c2)nc1C1CCN(c2ncnc(N)c2C(N)=O)CC1 | false (0) |
| CN(C)CCn1cc(-c2ccc(F)c(C(F)(F)F)c2)nc1C1CCN(c2ncnc(N)c2-c2ccc(F)cc2)CC1 | true (1) |
| CN(C)CCn1cc(-c2ccc(F)c(C(F)(F)F)c2)nc1C1CCN(c2ncnc(N)c2C(N)=O)CC1 | true (1) |
| CN(C)CC(c1ccc(C(F)(F)F)cc1)N1CCN(c2ncnc(N)c2-c2ccc(F)cc2)CC1 (stereo not given) | false (0) |
| NCC(c1ccc(C(F)(F)F)cc1)N1CCN(c2ncnc(N)c2-c2ccc(F)cc2)CC1 (stereo not given) | true (1) |
| N#Cc1c(N)ncnc1N1CCC(c2nc(-c3ccc(F)c(C(F)(F)F)c3)cn2CCN2CCC2)CC1 | true (1) |
| NCC(c1ccccc1)N1CCN(c2ncnc(N)c2-c2ccc(F)cc2)CC1 (stereo not given) | false (0) |
| CN(C)CCn1cc(-c2ccc(F)c(C(F)(F)F)c2)nc1C1CCN(c2ncnc(N)c2C#N)CC1 | true (1) |
| Nc1ncnc(N2CCC(c3nc(-c4ccc(F)c(C(F)(F)F)c4)cn3CCN3CCC3)CC2)c1-c1ccc(F)cc1 | true (1) |

* * *

# PROCEDURE TEXT: AUC in CD-1 mouse at 5 mg/kg, po
# Assay type: ADME, organism-based
# Set-up: dose 5 mg/kg
# DETAILS: in vivo

| SMILES STR | MEASUREMENT UNIT | AUC |
| --- | --- | --- |
| NC(=O)c1c(N)ncnc1N1CCC(c2nc(-c3ccc(F)c(C(F)(F)F)c3)cn2CCN2CCC2)CC1 | ng·h/mL | 417 |

* * *

# PROCEDURE TEXT: Volume of distribution in CD-1 mouse at 0.5 mg/kg, po or 0.2 […], iv
# Type: ADME, organism-based
# DETAILS: in vivo
ENDPOINT NAME: Vd (L/kg)

| SMILES STR | MEASUREMENT |
| --- | --- |
| Cn1cc(-c2ccc(F)c(C(F)(F)F)c2)nc1C1CCN(c2ncnc(N)c2-c2ccc(F)cc2)CC1 | 2.16 |
